System: MDA-MB-231 cells
Protocol: Novelty detection of drug MoA on single-cell Chemical Painting data (LDA, Mahalanobis distance, isolation forest)
Format: cell-based, human
Recorded Conditions: test compounds; MoA predicted as known class or novel

{"columns": ["Smiles Record", "Assay System", "Prediction"],
 "data": [
  ["NC(=O)c1ccc(I)c([N+](=O)[O-])c1", "MDA-MB-231 cells", "Novel"],
  ["CC[C@]1(O)C[C@H]2CN(CCc3c([nH]c4ccccc34)[C@@](C(=O)OC)(c3cc4c(cc3OC)N(C=O)[C@H]3[C@@](O)(C(=O)OC)[C@H](OC(C)=O)[C@]5(CC)C=CCN6CC[C@]43[C@@H]65)C2)C1", "MDA-MB-231 cells", "Novel"],
  ["CC(=O)O[C@H]1C(=O)[C@@]2(C)[C@H]([C@H](OC(=O)c3ccccc3)[C@]3(O)C[C@H](OC(=O)[C@H](O)[C@@H](NC(=O)c4ccccc4)c4ccccc4)C(C)=C1C3(C)C)[C@]1(OC(C)=O)CO[C@@H]1C[C@@H]2O", "MDA-MB-231 cells", "Novel"]
]}
